test system: CCRF-CEM leukemia cells; test: Resazurin reduction cytotoxicity assay; format: cell-based; conditions: Homo sapiens, 72 h incubation
measurement type: pIC50
Reminder that pIC50 is minus the log10 of a molar concentration.

Example results:
Query string: Entry COc1cccc2c1C(=O)c1c(O)c3c(c(O)c1C2=O)C[C@@](O)(C(=O)CO)C[C@@H]3O[C@H]1C[C@H](N)[C@H](O)[C@H](C)O1 [Doxorubicin, doxorubicin, reference compound] : reported pIC50 = ?
Result string: 7.70

Query string: Cool, now `O=c1cc(-c2ccc(O)cc2)oc2ccc(O)cc12`
Result string: 4.72

Attention now shifts to the item below.
Query string: What does the record list as pIC50 for `O=c1cc(-c2ccc(O)cc2)oc2cc(O)ccc12` ?
Result string: 4.51

* * *

system: MDA-MB-231-BCRP clone 23 cells; assay: Resazurin reduction cytotoxicity assay; conditions: IC50 in MDA-MB-231-BCRP divided by IC50 in MDA-MB-231-pcDNA
Form field: Degree of resistance (one value per entry).
Could you respond with only the numeric value?

Field: example entries. Status: answers known.
Query string: Please look up its Degree of resistance: COc1cccc2c1C(=O)c1c(O)c3c(c(O)c1C2=O)C[C@@](O)(C(=O)CO)C[C@@H]3O[C@H]1C[C@H](N)[C@H](O)[C@H](C)O1 [Doxorubicin, doxorubicin, reference compound]
Result string: 6.14

Query string: What do you have for O=c1cc(-c2ccc(O)cc2)oc2cc(O)ccc12 [Compound 3] ?
Result string: 1.06

Query string: Please do the same for C=C(C)[C@@H]1CC[C@]2(C(=O)O)CC[C@]3(C)[C@H](CC[C@@H]4[C@@]5(C)CC[C@H](O)C(C)(C)[C@@H]5CC[C@]43C)[C@@H]12 [Compound 1, betulinic acid] as well.
Result string: 0.64

We now examine a further molecule.
Query string: // query Degree of resistance value for entry O=c1cc(-c2ccc(O)cc2)oc2ccc(O)cc12 [Compound 4]
Result string: 0.88

* * *

system: CEM/ADR5000 cells (multidrug-resistant P-glycoprotein-overexpressing subline); assay: Resazurin reduction cytotoxicity assay; type: cell-based; details: Homo sapiens; CEM/ADR5000, 72 h incubation
measurement type: IC50 (µM)
Report the figure in µM without appending any unit label.

Query string: Could you share which IC50 value was measured for `O=c1cc(-c2ccc(O)cc2)oc2ccc(O)cc12` ?
Result string: 38.8

Next:
Query string: // lookup IC50 for `O=c1cc(-c2ccc(O)cc2)oc2cc(O)ccc12`
Result string: 124

* * *

Below, each of the compounds is paired with its reported pIC50 value.
tested on: U87.MG glioblastoma cells; experiment: Resazurin reduction cytotoxicity assay; format: cell-based; conditions: Homo sapiens, U-87 MG; U87MG, 72 h incubation
Please note pIC50 is a logarithmic value: minus log10 of concentration in mol/L. Answer with that number alone.

Query string: Could you tell me which pIC50 is on file for `O=c1cc(-c2ccc(O)cc2)oc2ccc(O)cc12` ?
Result string: 4.36

New cases:
Query string: I'd like to know its pIC50. The compound in question is COc1cccc2c1C(=O)c1c(O)c3c(c(O)c1C2=O)C[C@@](O)(C(=O)CO)C[C@@H]3O[C@H]1C[C@H](N)[C@H](O)[C@H](C)O1 [Doxorubicin, doxorubicin, reference compound]
Result string: 6.59

Query string: # iterate: `C=C(C)[C@@H]1CC[C@]2(C(=O)O)CC[C@]3(C)[C@H](CC[C@@H]4[C@@]5(C)CC[C@H](O)C(C)(C)[C@@H]5CC[C@]43C)[C@@H]12`
Result string: 4.60

Query string: Item: `O=c1cc(-c2ccc(O)cc2)oc2cc(O)ccc12`
Result string: 4.21

* * *

Parameter pIC50: see the listing below.
tested on: Normal AML12 hepatocytes; assay: Resazurin reduction cytotoxicity assay; format: cell-based; conditions: Mus musculus; normal AML12 hepatocytes, 72 h incubation
pIC50: −log10 of the molar value.

Take a look at these entries with their results.
Query string: Give recorded pIC50 with Normal AML12 hepatocytes for the following compound: `O=c1cc(-c2ccc(O)cc2)oc2cc(O)ccc12`
Result string: < 4.00

Query string: Next up: CCCCCCCCCCCCCCCCCCCCCCCCCC(=O)OCC(O)CO (stereo not drawn) [Compound 2, glyceryl-1-hexacosanoate]
Result string: < 4.00

Here's the next entry for you.
Query string: API: value(readout= pIC50, system= Normal AML12 hepatocytes, query= `C=C(C)[C@@H]1CC[C@]2(C(=O)O)CC[C@]3(C)[C@H](CC[C@@H]4[C@@]5(C)CC[C@H](O)C(C)(C)[C@@H]5CC[C@]43C)[C@@H]12` )
Result string: < 4.03

Where do these numbers come from? They come from paper PMC6644236.
